system: Glutamine cyclotransferase-related protein (Porphyromonas gingivalis (strain ATCC BAA-308 / W83), UniProt Q7MT37)
assayDetails: Inhibition of Glutaminyl Cyclases
observationType: pKi
Schema: pKi number; meaning minus log10 of the concentration expressed in molar units.

Some solved cases for reference:
c1ccc(CNc2cnc3[nH]cnc3c2)nc1    6.40
CCCOc1ccc(CNc2cnc3[nH]cnc3c2)cc1    7.47
c1ccc(CNc2cnc3[nH]cnc3c2)cc1    6.83

Task: Requested read-out: pKi. Entry: COc1ccc(CNc2cnc3[nH]cnc3c2)cc1
Output: 7.08

Task: Try this molecule too: c1cncc(CNc2cnc3[nH]cnc3c2)c1
Output: 6.86

Task: Try this molecule too: NCCOc1ccc(CNc2cnc3[nH]cnc3c2)cc1
Output: 7.52

Task: Try this molecule too: COc1cccc(CNc2cnc3[nH]cnc3c2)c1
Output: 7.11

Task: Try this molecule too: Clc1cccc(CNc2cnc3[nH]cnc3c2)c1
Output: 6.97

Task: Try this molecule too: COc1ccc(CNc2cnc3[nH]cnc3c2)cc1OC
Output: 6.88

Task: Try this molecule too: Fc1cc(CNc2cnc3[nH]cnc3c2)cc(F)c1F
Output: 6.80

###

system: UniProt:Q16769
Sequence (Q16769 whole entry): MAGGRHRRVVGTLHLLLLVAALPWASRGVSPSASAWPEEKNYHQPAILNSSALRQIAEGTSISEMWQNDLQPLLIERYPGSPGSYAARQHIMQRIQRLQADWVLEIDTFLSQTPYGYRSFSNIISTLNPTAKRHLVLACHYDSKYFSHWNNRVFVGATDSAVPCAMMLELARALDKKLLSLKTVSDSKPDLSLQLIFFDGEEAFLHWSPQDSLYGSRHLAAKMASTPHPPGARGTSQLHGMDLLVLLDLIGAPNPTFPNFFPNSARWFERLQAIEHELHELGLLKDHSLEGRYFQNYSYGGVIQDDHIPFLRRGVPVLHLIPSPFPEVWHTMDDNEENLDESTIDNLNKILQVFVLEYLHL
Labelling field: enter y if recorded Ki is less than 600 nM. Enter n if it equals or exceeds that cut-off.

See these solved cases before continuing.
NCCOc1ccc(CNc2cnc3[nH]cnc3c2)cc1 [US11958871, Example 16]    n
c1ccc(CNc2cnc3[nH]cnc3c2)cc1 [US11958871, Example 2]    n

Task: Please state whether Ki is below 600 nM for Clc1ccc(CNc2cnc3[nH]cnc3c2)cc1Cl [US11958871, Example 14]
Output: y

Task: Try this molecule too: Clc1cccc(CNc2cnc3[nH]cnc3c2)c1 [US11958871, Example 5]
Output: n

Task: Try this molecule too: COc1ccc(CNc2cnc3[nH]cnc3c2)cc1OC [US11958871, Example 13]
Output: y

Task: Try this molecule too: c1nc2cc(NCc3ccsc3)cnc2[nH]1 [US11958871, Example 8]
Output: n

Task: Try this molecule too: c1nc2cc(NCc3ccc4c(c3)OCCO4)cnc2[nH]1 [US11958871, Example 12]
Output: y

###

# pKi per record follows
system: Glutamine cyclotransferase-related protein (Porphyromonas gingivalis (strain ATCC BAA-308 / W83))
Sequence (Q7MT37 whole entry): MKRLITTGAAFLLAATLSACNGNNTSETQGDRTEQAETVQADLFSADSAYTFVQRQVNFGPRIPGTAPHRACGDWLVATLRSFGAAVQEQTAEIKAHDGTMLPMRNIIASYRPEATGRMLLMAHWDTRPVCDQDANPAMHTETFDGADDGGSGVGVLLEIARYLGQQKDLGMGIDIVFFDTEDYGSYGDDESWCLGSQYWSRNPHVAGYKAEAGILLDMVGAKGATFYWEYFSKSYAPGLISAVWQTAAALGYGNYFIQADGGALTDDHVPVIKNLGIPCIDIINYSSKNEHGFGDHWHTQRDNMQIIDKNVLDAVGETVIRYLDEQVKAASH
assayDetails: Inhibition of Glutaminyl Cyclases
Schema: pKi number; meaning minus log10 of the concentration expressed in molar units.

Clc1ccc(CNc2cnc3[nH]cnc3c2)cc1Cl    7.28
c1cc(CNc2cnc3[nH]cnc3c2)cc(N2CCCCC2)c1    6.35
c1nc2cc(NCc3ccsc3)cnc2[nH]1    6.73

Moving on to the next compound.
Task: Requested read-out: pKi. Entry: c1nc2cc(NCc3ccc4c(c3)OCCO4)cnc2[nH]1
Output: 7.36

Origin of the recorded values: BindingDB's records for patent US11958871
